Recorded values, source patent US8415349B2.

Target: DPP-IX (Homo sapiens, UniProt Q86TI2)
Construct: purchased Bioscience 80090
Sequence (Q86TI2 whole entry): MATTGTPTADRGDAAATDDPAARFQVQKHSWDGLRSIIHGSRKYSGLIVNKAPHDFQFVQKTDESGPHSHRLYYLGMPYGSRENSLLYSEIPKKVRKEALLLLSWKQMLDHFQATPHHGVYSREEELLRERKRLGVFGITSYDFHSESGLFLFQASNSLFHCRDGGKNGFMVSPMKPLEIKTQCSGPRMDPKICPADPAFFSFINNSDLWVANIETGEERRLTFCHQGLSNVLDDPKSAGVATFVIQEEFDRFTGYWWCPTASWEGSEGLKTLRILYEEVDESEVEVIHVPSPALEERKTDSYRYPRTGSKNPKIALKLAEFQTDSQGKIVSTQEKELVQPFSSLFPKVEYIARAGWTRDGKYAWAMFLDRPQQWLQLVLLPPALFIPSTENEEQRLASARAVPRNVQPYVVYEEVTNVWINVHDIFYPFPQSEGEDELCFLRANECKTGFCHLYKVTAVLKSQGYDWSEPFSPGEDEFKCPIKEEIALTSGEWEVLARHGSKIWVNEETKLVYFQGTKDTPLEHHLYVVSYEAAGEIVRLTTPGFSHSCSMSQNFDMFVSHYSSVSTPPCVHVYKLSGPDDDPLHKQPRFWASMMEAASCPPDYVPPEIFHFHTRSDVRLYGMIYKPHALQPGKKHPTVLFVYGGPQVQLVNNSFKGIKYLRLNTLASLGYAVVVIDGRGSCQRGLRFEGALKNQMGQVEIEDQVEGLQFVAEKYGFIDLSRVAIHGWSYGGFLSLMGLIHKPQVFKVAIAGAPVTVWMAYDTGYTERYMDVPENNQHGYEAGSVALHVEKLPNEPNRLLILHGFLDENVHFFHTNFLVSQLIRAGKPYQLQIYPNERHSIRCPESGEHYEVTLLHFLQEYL
Assay: Assay for DPP-IX inhibitory activity (luminescence)
Assay type: biochemical
Conditions: purified DPP-IX enzyme
Structures can show the parent of a compound that is named as a salt.
observable: IC50 (nM)

> print(dat)
                                   compound  observable  recordedresult
1  CN(C)C(=O)N1C[C@@H]2C[C@](C)(NCC(=O)N3C[C@@H](F)C[C@H]3C#N)C[C@@H]2C1 [Example 13, tartrate]        IC50             516
2  CN(C)C(=O)N1C[C@@H]2C[C@@](C)(NCC(=O)N3C[C@@H](F)C[C@H]3C#N)C[C@@H]2C1 [Example 18, p-toluenesulfonate]        IC50             380
